Tested on: P12-Ichikawa
method-notes: cell viability relative to DMSO control; higher = less cytotoxic
recorded-conditions: HPLM + 10% dialyzed FBS; 48 h; 15.4 µM

{"columns": ["compound", "cell viability / %"],
 "data": [
  ["C[C@H]1[C@@H](C(=O)C[C@H]2O[C@@H]3O[C@]4(C)CC[C@H]5[C@H](C)CC[C@@H]([C@H]2C)[C@@]35OO4)O[C@@H]2O[C@]3(C)CC[C@H]4[C@H](C)CC[C@@H]1[C@@]24OO3", 86.3],
  ["Nc1cccc2c1CN([C@H]1CCC(=O)NC1=O)C2=O", 88.8],
  ["Cc1ccc([S+](=O)([O-])Nc2nc3ccccc3nc2Nc2ccc3nsnc3c2)cc1", 36.3],
  ["CN(C)CC[C@H](c1ccc(Cl)cc1)c1ccccn1", 86],
  ["C[S+](=O)([O-])c1cccc(CNc2nc(Nc3ccc4c(c3)CCC(=O)N4)ncc2C(F)(F)F)c1", 96.7],
  ["COC(=O)C1C2CC3c4[nH]c5cc(OC)ccc5c4CCN3CC2CC(OC(=O)c2cc(OC)c(OC)c(OC)c2)C1OC (stereo unspecified)", 107],
  ["C[S+](=O)([O-])c1ccc(C(=O)Nc2ccc(Cl)c(-c3ccccn3)c2)c(Cl)c1", 126],
  ["CCOC(=O)c1cncn1[C@H](C)c1ccccc1", 109],
  ["CN[C@@H]1Cc2cccc3[nH]c(=O)n(c23)C1", 106],
  ["O=C(Nc1ncc(-c2cc(C(F)F)nn2-c2c(Cl)cccc2Cl)s1)C1CC1", 11],
  ["CO/C1=C/C(C)=C\\[C@@H](C)[C@@H](O)[C@@H](C)C/C(C)=C\\C=C/[C@H](OC)[C@@H]([C@@H](C)[C@@H](O)[C@H](C)[C@@]2(O)C[C@@H](O)[C@H](C)[C@@H](C(C)C)O2)OC1=O", 36.8],
  ["CNCc1ccc(-c2[nH]c3cc(F)cc4c3c2CCNC4=O)cc1", 123],
  ["CN(C)CCN(C)C(=O)c1ccc(NC(=O)Nc2ccc(-c3nc(N4CCOCC4)c4ccn(CC(F)(F)F)c4n3)cc2)cc1", 90.8],
  ["O=C\\1N(N\\C=C1[N]2C=CN=N2)C3=NC=NC(=C3)N4CCOCC4", 15.9],
  ["C=CC(=O)Nc1cccc(Nc2nc(NC3CCC(N(C)C)CC3)nc3c2ncn3C(C)C)c1 (stereo unspecified)", 11.1],
  ["CC(C)c1cnn2c(NCc3ccccc3)cc(NCCCCCCN)nc12", 110],
  ["N[S+](=O)([O-])c1cccc2c1C(=O)c1cccc(O)c1C2=O", 80.9],
  ["O=C(Cc1ccc(-c2ccc(OCCN3CCOCC3)cc2)cn1)NCc1ccccc1", 9.64],
  ["COc1ccc2[nH]c([S+]([O-])Cc3ncc(C)c(OC)c3C)nc2c1 (stereo unspecified)", 95.4],
  ["Cc1cnc(C(=O)O)c[n+]1[O-]", 107],
  ["CC(C)C[C@H](NC(=O)CNC(=O)c1cc(Cl)ccc1Cl)B(O)O", 3],
  ["COc1cccc([C@@H](C)NCCCc2ccccc2Cl)c1", 99.2],
  ["CN(C)CCOc1ccc(-c2nc(-c3ccncc3)c(-c3ccc4c(c3)CC/C4=N\\O)[nH]2)cc1", 90.6],
  ["NC(=O)c1cccc2cn(-c3ccc([C@@H]4CCCNC4)cc3)nc12", 86.9],
  ["O=C(c1ccc(F)c(F)c1Nc1ccc(I)cc1F)N1CC(O)([C@@H]2CCCCN2)C1", 12.6],
  ["C/C(O)=C(\\C#N)C(=O)Nc1cc(Br)ccc1Br", 97.9]
]}

Value source: the supplement of paper PMC11451515
